- procedure-summary: clinical
- condition-set: male, human, in vivo, iv, 60 mg/m2, Tmax
readout-name: Tmax (min)

• CC(=O)O[C@@]12CO[C@@H]1C[C@H](O)[C@@]1(C)C(=O)[C@H](O)C3=C(C)[C@@H](OC(=O)[C@H](O)[C@@H](NC(=O)OC(C)(C)C)c4ccccc4)C[C@@](O)([C@@H](OC(=O)c4ccccc4)[C@H]21)C3(C)C = 52.8

----------
- procedure-summary: clinical
- condition-set: human, plasma, po, 75 mg/m2, t1/2, oral 75 mg/m^2 with Compound A; Mean, N=3
readout-name: half-life (h)

* CC(=O)O[C@@]12CO[C@@H]1C[C@H](O)[C@@]1(C)C(=O)[C@H](O)C3=C(C)[C@@H](OC(=O)[C@H](O)[C@@H](NC(=O)OC(C)(C)C)c4ccccc4)C[C@@](O)([C@@H](OC(=O)c4ccccc4)[C@H]21)C3(C)C | 53.1

Sourced from patent US10849893B2
